# System: extracellular plant proteases
# ASSAY_EXPLANATION: in vitro
# SETTINGS: 10% extracellular fluid from tobacco leaf, pH 7.4
Ends that are not written are not given here.
QUANTITY: remaining at 0.25 h (%)
Give bare numbers, in %.

[in] Entry under review: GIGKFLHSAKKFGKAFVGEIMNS [Peptide No. 1, Magainin 2] . Reported remaining at 0.25 h?
[out] 23

====

# Tested on: isolated chloroplasts
# ASSAY_EXPLANATION: Oxygen evolution bioassay, phytotoxicity (isolated chloroplasts)
# Type: cell-based, Spinach (Spinacia oleracea L. var. Melody)
# SETTINGS: 8 uM
Ends that are not written are not given here.
QUANTITY: inhibition of oxygen evolution
Output should be the measured figure followed by the unit it is expressed in.

| SUBSTANCE | inhibition of oxygen evolution |
| --- | --- |
| MGIGKFLREAGKFGKAFVGEIMKGIGKFLREAGKFGKAFVGEIMKP [Peptide No. 15, Head-to-tail peptide Nos. 11 and 12***] | 100% |
| GIGKFLHSAKKFGKAFVGEIMNSGGGGGGIGKFLHSAKKFGKAFVGEIMNS [Peptide No. 6, Mag 2 dimer (bridged)] | 100% |
| CGIGKFLREAGKFGKAFVGEIMKP [Peptide No. 13, Cys [Arg 7, Glu 8, Pro 23] Mag 1] | 100% |
| KWKLFKKIEKVGQNIRDGIIKAGPAVAVVGQATQIAK-NH2 [Peptide No. 3, Cecropin A-NH2, reference compound] | 100% |

[in] What reported inhibition of oxygen evolution corresponds to GIGKFLHSAKKFGKAFVGEIMNSGIGKFLHSAKKFGKAFVGEIMNS [Peptide No. 5, (Mag 2)-(Mag 2)] on isolated chloroplasts?
[out] 100%

Taken from patent US5519115A.
